Molecular target: wild type MLL1 four-member complex (MLL1-4C) (Homo sapiens)
Assay: MLL1 LC-MS Assay
Assay type: biochemical
Details: read-out: LCMS
Protocol: The compounds of the present disclosure were serially and separately diluted 3-fold in DMSO to obtain a total of eight or twelve concentrations. Then the test compounds at each concentration (120 nL of each) were transferred by Mosquito into white Proxiplate plus 384-well microplate (PerkinElmer). […] The SAH production from the enzymatic assays were monitored by LC-MS/MS on an API 4000 triple quadrupole mass spec with Turbolon Spray (Applied Biosystem) coupled with Prominenece UFLC (Shimazu). […]
Items are presented alongside their recorded IC50.

In [3]: df
Out[3]:
                                   compound  measured_metric  measured_value
0  Nc1ncnc2c1ncn2Cc1c(N2CC[C@](N)(C(=O)NCc3cccnn3)C2)ccc(F)c1C(F)(F)F             IC50    50 to 100 nM
1  Nc1ncnc2c1ncn2Cc1c(N2CC[C@](N)(C(=O)NC3CC3)C2)ccc(C(F)(F)F)c1Br             IC50         < 50 nM
2  Nc1ncnc2c1ncn2Cc1c(Br)c(Cl)c2c(c1N1CC[C@](N)(C(=O)NC3CC3)C1)CCC2 (stereo in doubt)             IC50    50 to 100 nM
3  C[C@@H](NC(=O)[C@@]1(N)CCN(c2ccc(F)c(C(F)(F)F)c2Cn2cnc3c(N)ncnc32)C1)C1CCOCC1             IC50    50 to 100 nM

If you can, please state the reported IC50 value of N#Cc1c(Cl)ccc(N2CC[C@](N)(C(=O)NC3CC3)C2)c1Cn1cnc2c(N)ncnc21 .
< 50 nM

If you can, please state the reported IC50 value of Nc1ncnc2c1ncn2Cc1c(N2CC[C@](N)(C(=O)NC3CC3)C2)ccc(F)c1CN1CC(F)(F)C1 .
50 to 100 nM

---

system: MV4-11 cells; assay: MV4-11 6-Day Cell Growth CTG (CellTiter-Glo) Assay; format: cell-based; conditions: Homo sapiens, MV4-11, 144 h, MV4-11 cell growth CellTiter-Glo, 6 days
pIC50: −log10 of the molar value.
MEASURED METRIC: pIC50

As a guide, the following entries are already answered.
In [3]: df
Out[3]:
                                   compound  measured_value
0  CN(C)Cc1c(F)ccc(N2CC[C@](N)(C(=O)NC3CC3)C2)c1Cn1cnc2c(N)ncnc21 [Example 45]          > 5.70
1  C[C@@H]1CN(C(=O)[C@@]2(N)CCN(c3ccc(F)c(C(F)(F)F)c3Cn3cnc4c(N)ncnc43)C2)CCO1 [Example 135]          > 5.70
2  COC1CC2(C1)CC2NC(=O)[C@@]1(N)CCN(c2ccc(F)c(C(F)(F)F)c2Cn2cnc3c(N)ncnc32)C1 (stereo partly drawn) [Example 130]          > 5.70
3  Nc1ncnc2c1ncn2Cc1c(N2CC[C@](N)(C(=O)NC3CC3)C2)ccc2c1OC(F)(F)O2 [Example 15]          > 5.70
4  Nc1ncnc2c1ncn2Cc1c(N2CC[C@](N)(C(=O)N[C@H]3C[C@@H]3c3ccccc3)C2)ccc(F)c1CN1CCOCC1 [Example 51]          > 5.70
5  COC[C@@]1(N)CCN(c2cc(Cl)cc(Br)c2Cn2cnc3c(N)ncnc32)C1 [Example 32]          < 5.52
6  C=Cc1c(Cl)ccc(N2CC[C@](N)(C(=O)NC3CC3)C2)c1Cn1cnc2c(N)ncnc21 [Example 163]          > 5.70
7  Nc1ncnc2c1ncn2Cc1c(N2CC[C@](N)(C(=O)NC3CC3)C2)ccc(F)c1CN1CCC(F)(F)C1 [Example 66]          > 5.70
8  CCc1c(C(F)(F)F)ccc(N2CC[C@](N)(C(=O)NC3CC3)C2)c1Cn1cnc2c(N)ncnc21 [Example 12]          > 5.70
9  N#Cc1c(F)ccc(N2CC[C@](N)(C(=O)NC3CC3)C2)c1Cn1cnc2c(N)ncnc21 [Example 4]          < 5.52

From here, focus on the item given below.
Provide the documented pIC50 with MV4-11 cells as the system for Nc1ncnc2c1ncn2Cc1c(N2CC[C@](N)(C(=O)NC3CC3)C2)ccc(F)c1CN1CCOCC1 [Example 65]
> 5.70

---

System: H3K4me3 in MV4-11 cells
Assay: MV4-11 H3K4me3 Cellular ELISA Assay
Format: cell-based
Conditions: Homo sapiens, MV4-11, 48 h
Method: MV4-11 H3K4me3 Cellular ELISA Assay […] 200 nL compounds dissolved in DMSO were serially diluted at 1:3 ratio for 12 points starting from 10 mM and dispensed into each wells of cell culture plates (PDL-coated ViewPlate-384 Black, FTC, PerkinElmer, #6007710). […] The abundance of H3K4me3 and total H3 were measured by ECL substrates chemiluminescence (Pierce, #34080) on a plate reader (PerkinElmer EnVison 2104 Mutilable Reader). […]
pIC50: −log10 of the molar value.
Items are presented alongside their recorded pIC50.

As a guide, the following entries are already answered.
>>> df
                                   compound  measured_value
0  Nc1ncnc2c1ncn2Cc1c(CN2CCOCC2)c(F)cc(Cl)c1N1CC[C@](N)(C(=O)NC2CC2)C1          < 5.52
1  Nc1ncnc2c1ncn2Cc1c(N2CC[C@](N)(C(=O)NC3CC3)C2)ccc(Cl)c1Cl          > 5.72
2  N#CC1CCN(C(=O)[C@@]2(N)CCN(c3ccc(F)c(C(F)(F)F)c3Cn3cnc4c(N)ncnc43)C2)C1 (stereo partly drawn)          > 5.72
3  Nc1ncnc2c1ncn2Cc1c(Br)cc(Cl)c(Cl)c1N1CC[C@](N)(C(=O)NC2CC2)C1          < 5.52
4  Nc1ncnc2c1ncn2Cc1c(N2CC[C@](N)(c3ccccn3)C2)ccc(F)c1C(F)(F)F          > 5.72
5  Nc1ncnc2c1ncn2Cc1c(N2CC[C@](N)(C(=O)NC3CC3)C2)ccc(F)c1CO          > 5.72

If you can, please state the reported pIC50 value of C#Cc1c(F)ccc(N2CC[C@](N)(C(=O)NC3CC3)C2)c1Cn1cnc2c(N)ncnc21 .
> 5.72

If you can, please state the reported pIC50 value of CCc1c(C#N)c(Cl)cc(N2CC[C@](N)(C(=O)NC3CC3)C2)c1Cn1cnc2c(N)ncnc21 .
> 5.72

If you can, please state the reported pIC50 value of Nc1ncnc2c1ncn2Cc1c(Br)cc(Cl)cc1N1CC[C@](N)(C(=O)NC2CC2)C1 .
> 5.72

If you can, please state the reported pIC50 value of Nc1ncnc2c1ncn2Cc1c(N2CC[C@](N)(C(=O)NC3CC3)C2)ccc(F)c1CN1CCCCC1 .
> 5.72

If you can, please state the reported pIC50 value of CN(C)Cc1c(F)ccc(N2CC[C@](N)(C(=O)NC3CC3)C2)c1Cn1cnc2c(N)ncnc21 .
> 5.72

If you can, please state the reported pIC50 value of COC(=O)NCc1c(F)ccc(N2CC[C@](N)(C(=O)NC3CC3)C2)c1Cn1cnc2c(N)ncnc21 .
< 5.52

---

target: wild type MLL1 four-member complex (MLL1-4C) (Homo sapiens); test: MLL1 LC-MS Assay; assay type: biochemical; conditions: read-out: MLL1 LCMS
pIC50: −log10 of the molar value.
Items are presented alongside their recorded pIC50.

As a guide, the following entries are already answered.
                                   molecule                          target_or_system  measured_value
0  Nc1ncnc2c1ncn2Cc1c(N2CC[C@](N)(c3nnn[nH]3)C2)ccc(Cl)c1I [Example 156]  wild type MLL1 four-member complex (MLL1-4C) (Homo sapiens)    7.00 to 7.30
1  Nc1ncnc2c1ncn2Cc1c(Cl)c(Cl)cc(F)c1N1CCC(N)(C(=O)NC2CC2)C1 (stereo not shown) [Example 152]  wild type MLL1 four-member complex (MLL1-4C) (Homo sapiens)          < 7.00
2  CCc1cccc(N2CC[C@](N)(C(=O)NC3CCCC3)C2)c1Cn1cnc2c(N)ncnc21 [Example 169]  wild type MLL1 four-member complex (MLL1-4C) (Homo sapiens)    7.00 to 7.30
3  Nc1ncnc2c1ncn2Cc1c(Cl)cccc1N1CCC(N)(C(=O)NC2CC2)C1 (stereo not shown) [Example 164]  wild type MLL1 four-member complex (MLL1-4C) (Homo sapiens)    7.00 to 7.30
4  N#CC1CCN(C(=O)[C@@]2(N)CCN(c3ccc(F)c(C(F)(F)F)c3Cn3cnc4c(N)ncnc43)C2)C1 (stereo partly shown) [Example 141]  wild type MLL1 four-member complex (MLL1-4C) (Homo sapiens)          > 7.30

If you can, please state the reported pIC50 value of COCc1c(Cl)cc(Cl)c(N2CC[C@](N)(C(=O)NC3CC3)C2)c1Cn1cnc2c(N)ncnc21 [Example 162] .
7.00 to 7.30

If you can, please state the reported pIC50 value of [2H]C([2H])([2H])C([2H])([2H])NC(=O)[C@@]1(N)CCN(c2cc(Cl)cc(Br)c2Cn2cnc3c(N)ncnc32)C1 [Example 159] .
> 7.30

If you can, please state the reported pIC50 value of CCc1c(Cl)ccc(N2CC[C@](N)(C(=O)N3CCS(=O)(=O)CC3)C2)c1Cn1cnc2c(N)ncnc21 [Example 155] .
< 7.00

If you can, please state the reported pIC50 value of CCc1c(Cl)ccc(N2CC[C@](N)(C(=O)NC3CC3)C2)c1Cn1cnc2c(N)ncnc21 [Example 165] .
7.00 to 7.30

If you can, please state the reported pIC50 value of COc1ccc(N2CC[C@](N)(C(=O)NC3CC3)C2)c(Cn2cnc3c(N)ncnc32)c1Br [Example 168] .
7.00 to 7.30
